Data origin, for the record: ChEMBL document CHEMBL5674850

As shown below, each of these molecules has a reported solubility kinetic value.
# methodNotes: Kinetic solubility of compound by measuring concentration at pH 7.4 in saturated PBS buffer by UV LCMS/MS using calibration curves. The assay has been performed by Enamine biological services, Bienta Ltd.The protocol is publicly available: dx.doi.org/10.17504/protocols.io.j8nlk8y41l5r/v1
# Assay type: physicochemical
# particulars: PBS buffer
Report only the number, with the unit µM understood.

Please review the entries below; each comes with its answer.
N#C[C@H](Nc1ccc2c(c1)CNC2)c1cc(Cl)cc2[nH]ncc12 | 297
CCOc1cccc(-c2ccc(S(=O)(=O)Nc3ccc(Cl)cc3C(=O)O)cc2)c1 | 392
Cn1c(=O)[nH]c2c(C(=O)Nc3ccc4c(c3)CNC4)cc(Br)cc21 | 161

Query: Requested read-out: solubility kinetic. Entry: `O=C(Nc1cc(Br)c2c(c1)CNC2)c1cc(F)cc2[nH]ncc12`
Response: 4

Query: Request: `CNC(=O)c1cc(Cl)c(F)cc1NS(=O)(=O)c1ccc(Oc2ccccc2Cl)cc1`
Response: 49

Query: Request: `COc1ccc(-c2nc3c(C(=O)Nc4ccc5c(c4)CNC5)cc(F)cc3[nH]2)nn1`
Response: 16

Query: Request: `O=C(Nc1cc(Cl)cc(C(=O)Nc2ccc3c(c2)CNC3)c1)OCc1ccccc1`
Response: 35

Query: Request: `CCc1cc(C(=O)Nc2cccc(CN)c2)sc1-c1ccc(Cl)cc1`
Response: 7

Query: Request: `COc1cc(-c2cc(NC(=O)c3cc(F)cc4[nH]ncc34)cc3c2CNC3)ccn1`
Response: 180

Query: Request: `CC(C)n1cc2c(C(=O)Nc3ccc4c(c3)CNC4)cc(Cl)cc2n1`
Response: 181

Query: Request: `O=C(/C=C/c1ccccc1)C(=O)N1CCN(CCc2ccccc2)CC1`
Response: 239
